# Protocol: PET hydrolysis, aromatic products released after 48 h (umol product/mg enzyme); higher = more PET depolymerization activity
# Settings: substrate: cryPow; 40 °C; pH 8.5
The entries below are paired with their reported PET hydrolysis.
// response body must contain only the number

item_sequence="QSNPYERGPAPTESSIEATRGSFSVSDKNVSSFSASGFGGGTIYYPTDTSQGTFGGVAISPGFTAGESSIAWLGPRIASQGFVVITIDTNSRYDQPNSRADQLQAALDHIVADSTVGSRIDPNRLAVMGHSMGGGGSLKAAEDNADLQAAVPLQPWHTQKNWSDVEVPTLIIGAENDSVASVTTHSKPFYTSLPDDLDKAYLELDGASHFVSNTPDTTTAKYSISWLKRFVDDDTRYEQFLCPAPDDRTISEYRDTCPHSGGGGTTPTTTPTTLPPDDDCAWWQWWC [DP057]" property_measured="PET hydrolysis" val=31

Need PET hydrolysis, item AQTSQVVTANPHQRGPDPTPETVRAPQGTFAFSTYSVPASVTGFGQGTIYYPDDTTQGTFAGVAISPGYTGPEASVAWLGPRLASRGFVVITITTNSRYDQPTSRGKQLLAALDYLTKQSPTEVRQRLDATRLGVMGHSMGGGGALYAAYKRPSLKAAVPLAPWNLIKNWSGIRVPTLVVAGTADKTASAGAHSLPFYSSMTGARERAFADVTGADHLTFVREDPVIGALAVSWLKRFLDDDTRYAPFITEPVGLSRFLCSCPYAG [DP007]
16

---

# Protocol: PET hydrolysis, aromatic products released after 48 h (umol product/mg enzyme); higher = more PET depolymerization activity
# Settings: substrate: aFilm; 60 °C; pH 5.5
The entries below are paired with their reported PET hydrolysis.

item_sequence="ADNPYQRGPNPTQASIAANRGTFATAETSVGGGNGFGGAKIYYPTDTSQGTFGAIAVSPGYTATWAAEGAWMGHWLASFGFVVIGIDTINRNDREYARGTQLLAALDYLTQRSSVRTRVDPNRLAVMGHSMGGGGTISAALRRPTLKAAIGLAPYYPSQSTSGMQVPTMLLAGQNDGTSTPASIVTFYNDIPASTEKVYLELTGAGHGFPTSNNSVVTRKVIPWMKIFIDQDTRYTQFLCPLQDLTGIRTYRNSCPLLPNDPGTTFSLAGSASGKCADVPGRVQTNGTGLIIWTCNNAGNQQWTQTPAGELRIYGNTKCMDANASGQGARVTINTCNGGNSQKWTVNTNGTVTNAASGRCLDAGGTADNSPVVVNTCNAASGQTWTKRP [DP047]" val="< 3"

Shifting focus to the sequence that follows.
Need PET hydrolysis, item AGFERGPDPSTSTLDAARGPFAVAEERVYSWRASGFGGGDIYYPTTTSEGTFGVVAVAPGYTAGRSSMAWLASRIASHGFVVINIDTLTRSDQPASRGRQLLAALDHVTSSSGVRDRVDASRQAVVGHSMGGGGALEAASSRPALQAAVPLTPWNLTKRWSSLQVPTFIVGAENDSVASVRTHAEPFYESLPAALPKAYLELNNASHFAPNTTNSTIGRYTVAWLKRYVDDDLRYSQFLCPPPPPSSAIEEFRATC [DP087]
< 3

---

The entries below are paired with their reported PET hydrolysis.
# Protocol: PET hydrolysis, aromatic products released after 48 h (umol product/mg enzyme); higher = more PET depolymerization activity
# Settings: substrate: cryPow; 40 °C; pH 6.5
// response body must contain only the number

item_sequence="ATPARPASVAAAPAAVQRAADNPYQRGPAPTEASITAEKGPFAVETIPVPAGSGTGFNKGTVYAPTDTSEGTFGAIVVSPGFVSPEAWISWYGPRLASQGFVVMTLETNSLVDVPASRGDQLLAALDWLTGKSSVKNRIDASRTAVMGHSMGGGGTLEAANKRPSLKADIPLAPWDTNYNFPNIKTPTLIMGADNDLIAPASSMAESYYNNITTAPEKAYLLLKNAGHMTFVSPNTTIAKYSIAWMKRFVDNDTRYDQFLCPAPKPDANIAKYLDTCPNG [DP016]" property_measured="PET hydrolysis" val=14

Shifting focus to the sequence that follows.
Need PET hydrolysis, item DEIGQAPTASNITGNGSFATTSASISSTVAGFGGGRVYYPTATGTYPVIAISPGFTATWSSLSWIGPRLSSWGFVVVGIETNSIYDQPGSRGSQLLAALNWAVSSSPTAVRSRVDGSRRGVAGHSMGGGGTLEALAADTSGLVKAGVPLAPWNSDKTWNNVSEPVLIVGGQSDTIAPVSSHSVPFYNTLAGPKTYVELTGASHFFPQSSNATTSRALVSWFKRWLNQDSRFTPFTCGFSGAAVSSFRTNAC [ESM093]
44
